# System: MOLT-4
# Method: NCI tumour cell line growth inhibition, 48 h
Calls of active or inactive are those of the source. No stated cut-off is given here; in the data, active = GI50 up to about 1.1 µM and inactive = higher.
Each record here notes measured GI50.
Quantity name: GI50

1) O=c1ccc2c(Cl)sc(Cl)c2[nH]1 | > 100 µM (inactive)
2) COC(=O)c1cc(Br)c(C(=O)C(Cl)(Cl)Cl)[nH]1 | > 100 µM (inactive)
3) COC1CCC(O)C(/C=C/[N+](=O)[O-])C1 (stereo unspecified) | 2.18 µM (inactive)
4) CCCCCCCCCCCCCCCCNc1ccn(C2CC(O)C(COC(c3ccccc3)(c3ccccc3)c3ccc(OC)cc3)O2)c(=O)n1 (stereo unspecified) | 49.3 µM (inactive)
5) COC(=O)C(C(=O)C(=O)Nc1ccc(N)cc1[N+](=O)[O-])c1nc2ccc(Cl)cc2nc1O (stereo unspecified) | > 100 µM (inactive)
6) C/C1=C/C2=CC(C)C[C@@H]2C(=O)[C@]2(C)C(=O)CC(C)(C)[C@H]2CC1=O (stereo partly specified) | > 50 µM (inactive)
7) CC(C)OC(=O)Nc1cccc(Cl)c1 | > 100 µM (inactive)
8) Cc1c(C(=O)CC(=O)C(=O)Nc2ccc(Cl)cc2)[n+]([O-])c2ccccc2[n+]1[O-] | > 100 µM (inactive)
9) CCOc1ccc(N/C(=C(/C(Cl)=C(/Cl)N(CC)CC)[N+](=O)[O-])n2nnc3ccccc32)cc1 | > 100 µM (inactive)
10) Cc1ccc(S(=O)(=O)NC(=O)NCC(=O)O)cc1 | > 100 µM (inactive)
11) CCCCC1Cc2cc(OC)ccc2-c2n1c1cc(OC)ccc1[n+]2C.CCCCC1Cc2cc(OC)ccc2-c2n1c1ccc(OC)cc1[n+]2C (stereo unspecified) | 4.79 µM (inactive)
12) O=C(CCN1CCCC1)c1ccc(Oc2ccc(F)cc2)cc1 | 24.4 µM (inactive)
13) CC1=C(C(=S)Nc2ccc(Cl)c(C(=O)OC(C)C)c2)SCCO1 | 15.7 µM (inactive)
14) c1ccc(CCNCc2ccco2)nc1 | > 100 µM (inactive)
15) CCN(CC)CCNC(=O)c1cc2cc(NC(=O)c3cc4cc(NC(=O)c5cc6cc([N+](=O)[O-])ccc6[nH]5)ccc4[nH]3)ccc2[nH]1 | < 0.01 µM (active)
16) O=C(OCc1ccccc1)N1CCNCCN(C(=O)OCc2ccccc2)CCNCC1 | 18 µM (inactive)
17) CC1Cc2c(Br)nc(N)nc2NC1=O (stereo unspecified) | > 100 µM (inactive)
18) O=S(=O)(N=[Se](=O)(c1ccccc1)c1ccccc1)c1ccccc1 | > 100 µM (inactive)
19) Cc1[nH]c2ccccc2c1C1Cc2ccccc2N1C(=O)C#Cc1ccc([N+](=O)[O-])cc1 (stereo unspecified) | 8.87 µM (inactive)
20) CCOC(=O)Nn1c(C)nnc1-c1ccccc1 | > 100 µM (inactive)
21) C/C(O)=C1\CC2CN3CCc4c([nH]c5ccccc45)C3CC2CC1=O (stereo unspecified) | 21.8 µM (inactive)

* * *

# Test system: UACC-257
# Method: NCI tumour cell line growth inhibition, 48 h
Active and inactive are the calls of the source. No stated cut-off is given here; in the data, active = GI50 up to about 1.1 µM and inactive = higher. Non-standard residues stand in square brackets, D forms with d. Residues, ends and D or L forms follow the SMILES beside them. ξ: configuration not given here. *: point of attachment. NMeY = CN[C@@H](Cc1ccc(O)cc1)C(=O)O; Cbz = O=C(OCc1ccccc1)*; ξA = CC(N)C(=O)O
Each record here notes measured GI50.
Quantity name: GI50

1) CCCC(O)c1cn(C(NC(=O)c2ccccc2)P(=O)(OCC)OCC)nn1 (stereo not given) | > 100 µM (inactive)
2) COc1ccc2c(-c3csc(-c4c[nH]c5ccccc45)n3)c[nH]c2c1 | 12.7 µM (inactive)
3) OC(c1cccs1)c1cc2ccccc2s1 (stereo not given) | > 10 µM (inactive)
4) COc1ccc(C[C@@H](C(=O)NCC(N)=O)N(C)C(=O)[C@@H]2CCCN2C(=O)[C@H](CC(C)C)NC(=O)C(C)NC(=O)OCc2ccccc2)cc1 (stereo not given in full) (Cbz-[ξA]LP[NMeY](Me)G-NH2) | > 100 µM (inactive)
5) CC1(C)OCC2OC3([C@H]4OC(C)(C)O[C@@H]4CO)OC(C)(C)OC3C2O1 (stereo not given in full) | > 100 µM (inactive)
6) CC(C)(C)OC(=O)C1C(=O)NC(=O)CC1C(COCc1ccccc1)OCc1ccccc1 (stereo not given) | 20.7 µM (inactive)
7) COC(=O)C(=O)C(/C(=N/N)C(=O)Nc1ccccc1C(N)=O)c1nc2ccc([N+](=O)[O-])cc2nc1O (stereo not given) | > 100 µM (inactive)
8) C=CCONC(=O)c1ccc(Cl)cc1 | > 100 µM (inactive)
9) CCCCCCc1cc2cc(C(=O)Nc3ccccc3F)c(=N)oc2cc1O | 6.64 µM (inactive)
10) OCCSCc1ccccc1 | > 100 µM (inactive)
